read-out: Monokine induced gamma interferon (MIG), CXCL9 (gene 4283); assay: BSK_hDFCGF_MIG: BioMAP Diversity Plus: hDFCGF Assay for Monokine induced gamma interferon (MIG) Biomarker Activity (AID 2283063); settings: primary human foreskin fibroblasts; actives raise or lower the signal
Active and inactive are the calls of the source. How the source made its calls: active means hit-call score of the fitted dose curve at least 0.9, where 1 is the maximum; inactive means score below 0.9.
Respond with a class label; see active, inactive

In [3]: df
Out[3]:
                                   compound  class_label
0                       CN(C)NC(=O)CCC(=O)O     inactive
1  CC(Oc1cccc(Cl)c1)C(=O)O (stereo unspecified)     inactive
2                 CNC(=O)ON=C(SC)C(=O)N(C)C     inactive
3                  CCC(=O)Nc1ccc(Cl)c(Cl)c1     inactive
4  CCC(=NOC/C=C/Cl)C1=C(O)CC(C2CCOCC2)CC1=O (stereo unspecified)     inactive

Q: What did the test return for CCCSP(=O)(OCC)SCCC ?
A: inactive

Q: Called result for CCOP(=S)(Oc1cnc(C(C)(C)C)nc1)OC(C)C (stereo unspecified)
A: active

Q: Any idea what this test logged for CC(C)=CC1C(C(=O)OCN2C(=O)C3=C(CCCC3)C2=O)C1(C)C (stereo unspecified) ?
A: active

Q: Record request — test call for CC(=NC#N)N(C)Cc1ccc(Cl)nc1
A: inactive

Q: // outcome(item) with item = CC(C1CC1)C(O)(Cn1cncn1)c1ccc(Cl)cc1 (stereo unspecified)
A: inactive

Q: Hi, sorry to bother you, what did the test record for CCOP(=O)(NC(C)C)Oc1ccc(SC)c(C)c1 (stereo unspecified) ?
A: inactive

Q: Which outcome was assigned to FC(F)C(F)(F)OCC(Cn1cncn1)c1ccc(Cl)cc1Cl (stereo unspecified) in this test?
A: inactive

Q: Name the outcome recorded for CC(C)N(C(=O)SCC(Cl)=C(Cl)Cl)C(C)C in the assay.
A: active

Q: Which result was noted for this compound in the test: CN(C)C(=O)Nc1cccc(C(F)(F)F)c1
A: inactive

Q: What was the test verdict on O=C(O)c1cc(Oc2ccc(C(F)(F)F)cc2Cl)ccc1[N+](=O)[O-] ?
A: inactive

Q: Record lookup: outcome of this test for CCNc1nc(Cl)nc(NC(C)(C)C#N)n1 ?
A: inactive

Q: Assay result, entry CCOP(=S)(OCC)Oc1ccc([N+](=O)[O-])cc1 — outcome?
A: inactive

Q: In this assay, the call recorded for Nc1c(Cl)cc([N+](=O)[O-])cc1Cl was what?
A: inactive

Q: What did this assay record as the result for COc1cccc(C(=O)NN(C(=O)c2cc(C)cc(C)c2)C(C)(C)C)c1C ?
A: inactive

Q: Record lookup: outcome of this test for CNC(=O)Oc1cccc2c1OC(C)(C)O2 ?
A: inactive

Q: Per the assay record, what outcome was assigned to CNc1cnn(-c2cccc(C(F)(F)F)c2)c(=O)c1Cl ?
A: inactive

Values compiled from PubChem BioAssay (EPA / NIEHS).
